Numbers sourced from patent US20220195023A1.

# key: entry, value: Kd
target: (NVDP)3(NANP)2 (Plasmodium falciparum); experiment: SPR, antibody on chip
assay_readout: Kd (nM)

1) AB-007039 (antibody, V domains shown) VH: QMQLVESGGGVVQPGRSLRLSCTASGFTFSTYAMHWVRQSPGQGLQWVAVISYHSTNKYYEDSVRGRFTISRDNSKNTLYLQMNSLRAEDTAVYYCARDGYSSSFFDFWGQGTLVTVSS VL: DIQMTQSPSTLSASVGDRVAITCRASQSISRWLAWYQQQPGKAPKLLMSGASVLESGVPSRFSGSGSGTEFTLTISSLQPDDFATYYCQHYNSYSVTFGQGTKVEIK	8250
2) AB-007052 (antibody, V domains shown) VH: QMQLVESGGGVVQPGRSLRLSCTASGFTFSTYAMHWVRQSPGQGLQWVAVISYHSNNKYYEDSVRGRFTISRDNSKNTLYLQMNSLRAEDTAVYYCARDGYSSSFFDFWGQGTLVTVSS VL: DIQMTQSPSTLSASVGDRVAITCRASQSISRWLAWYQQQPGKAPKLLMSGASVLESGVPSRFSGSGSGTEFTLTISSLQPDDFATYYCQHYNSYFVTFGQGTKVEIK	2560
3) AB-007035 (antibody, V domains shown) VH: QMQLVESGGGVVQPGRSLRLSCTASGFTFSSYAMHWVRQSPGQGLQWVAVISYHSTNKYYEDSVRGRFTISRDNSKNTLYLQMNSLRAEDTAVYYCARDGYSSSFFDFWGQGTLVTVSS VL: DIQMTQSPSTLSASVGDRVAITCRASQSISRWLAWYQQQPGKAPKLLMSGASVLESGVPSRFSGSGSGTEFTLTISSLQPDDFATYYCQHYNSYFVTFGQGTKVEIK	2690
